Provenance of the data: paper PMC6792352

tested on: GH3-TRE-Luc cell line; conditions: read-out: AC50 (uM) modified / 1000; Tox21_110001=Tox21_110680; viability, 1 nM T3 present, 24 h
property: CC50 (µM)
Answers are plain numbers, in µM.

Quick check: CC50 of COc1ccc(CCN2CCC(Nc3nc4ccccc4n3Cc3ccc(F)cc3)CC2)cc1 ? 4.42

###

Kindly supply the reported CC50 at 24 h values for the records listed here.
test: in vitro; settings: rat, gh3-tre-luc cells, AC50 (uM) modified / 1000

Would you please look over these solved cases?
INSERT INTO assay_data (compound, experimental_value) VALUES
  ('CC1(C)CNC(=NN=C(/C=C/c2ccc(C(F)(F)F)cc2)/C=C/c2ccc(C(F)(F)F)cc2)NC1 [Hydramethylnon]', '11.2 µM'),
  ('CC1=C(/C=C/C(C)=C/C=C/C(C)=C/C=C/C=C(C)/C=C/C=C(C)/C=C/C2=C(C)CCCC2(C)C)C(C)(C)CCC1', '> 50 µM'),
  ('CC(=O)Oc1ccc([N+](=O)[O-])cc1CCl [2-Acetoxy-5-nitrobenzyl chloride]', '67 µM');

Quick check: CC50 at 24 h of CCSC(=O)N(CC)CC [Ethiolate] ? > 90 µM

###

assay: in vitro; conditions: rat, gh3-tre-luc cells, AC50 (uM) modified / 1000, Tox21_110001=Tox21_111131; viability, 1 nM T3 present, 24 h
property: CC50 at 24 h

Quick check: CC50 at 24 h of C[C@]12C/C(=C/O)C(=O)C[C@@H]1CC[C@@H]1[C@@H]2CC[C@@]2(C)[C@H]1CC[C@]2(C)O ? > 50 µM

###

test: in vitro; details: rat, gh3-tre-luc cells, AC50 (uM) modified / 1000
Structures can show the parent of a compound that is named as a salt.
Kindly supply the reported CC50 at 24 h values for the records listed here.

INSERT INTO results (molecule, property, experimental_value) VALUES
  ('CCOc1ccc(OCC)c(Cl)c1', 'CC50 at 24 h', '> 90 µM');

For every record below, what is its CC50 at 24 h?
1. O=C(O)c1ccccc1-c1c2ccc(=O)cc-2oc2cc(O)ccc12 [Fluorescein sodium]
2. O=P(OC(CCl)CCl)(OC(CCl)CCl)OC(CCl)CCl [Tris(1,3-dichloro-2-propyl) phosphate]
3. CCN1CCOCC1
4. CO[C@H]1/C=C/O[C@@]2(C)Oc3c(C)c(O)c4c(O)c(c(/C=N/N5CCN(C6CCCC6)CC5)c(O)c4c3C2=O)NC(=O)/C(C)=C\C=C\[C@H](C)[C@H](O)[C@@H](C)[C@@H](O)[C@@H](C)[C@H](OC(C)=O)[C@@H]1C
5. CN1CCN(C2Cc3ccccc3Sc3ccc(Cl)cc32)CC1 (stereo not drawn) [Octoclothepine maleate]

> 50 µM
61.2 µM
> 90 µM
22.8 µM
7.55 µM

For every record below, what is its CC50 at 24 h?
1. CC(=O)OCC(=O)[C@@]12OC(C)(C)O[C@@H]1C[C@H]1[C@@H]3C[C@H](F)C4=CC(=O)C=C[C@]4(C)[C@@]3(F)[C@@H](O)C[C@@]12C [Fluocinonide]
2. CC1(C)Cc2cccc(O)c2O1 [2,3-Dihydro-2,2-dimethyl-7-benzofuranol]
3. O=C1Nc2ccc([N+](=O)[O-])cc2C1=O

> 20 µM
> 100 µM
> 90 µM

For every record below, what is its CC50 at 24 h?
1. CC(C)N(c1ccccc1)C(C)C
2. CCCC(=O)O

> 90 µM
> 100 µM

For every record below, what is its CC50 at 24 h?
1. O=CCCl
2. O=C(O)COC(=O)Cc1ccccc1Nc1c(Cl)cccc1Cl
3. c1ccc2ccccc2c1
4. O=c1cc(-c2ccccc2)oc2ccccc12
5. ClC=C(Cl)Cl

1: > 90 µM; 2: > 20 µM; 3: > 90 µM; 4: > 90 µM; 5: > 90 µM

###

assay: in vitro; conditions: rat, gh3-tre-luc cells, AC50 (uM) modified / 1000
property: CC50 at 24 h

INSERT INTO results (compound, property, experimental_value) VALUES
  ('N=C(N/N=C/c1ccc(Cl)cc1)N/N=C/c1ccc(Cl)cc1 [Robenidine]', 'CC50 at 24 h', '46.1 µM'),
  ('CCc1cccc(O)c1 [3-Ethylphenol]', 'CC50 at 24 h', '> 90 µM'),
  ('CC(=O)OCC(=O)[C@@]1(OC(C)=O)[C@@H](C)C[C@H]2[C@@H]3C[C@H](F)C4=CC(=O)C=C[C@]4(C)[C@@]3(F)[C@@H](O)C[C@@]21C [Diflorasone diacetate]', 'CC50 at 24 h', '> 50 µM');

Quick check: CC50 at 24 h of Clc1ccc(CCC(Cn2ccnc2)Sc2c(Cl)cccc2Cl)cc1 (stereo not shown) [Butoconazole nitrate] ? > 20 µM

###

Kindly supply the reported AC50 values for the records listed here.
assay: Global cytotoxicity: eighteen Tox21 cell viability assays; assay type: cell-based

INSERT INTO measurements (molecule, property, experimental_value) VALUES
  ('COc1cccc2c1C(=O)c1c(O)c3c(c(O)c1C2=O)C[C@@](O)(C(C)=O)C[C@@H]3O[C@H]1C[C@H](N)[C@H](O)[C@H](C)O1 [Daunorubicin]', 'AC50', '10.5 µM'),
  ('Cc1cccc(Nc2ccccc2C(=O)O)c1C [Mefenamic acid]', 'AC50', '50.8 µM'),
  ('CSCC[C@H](NC(=O)[C@H](Cc1ccc(OS(=O)(=O)O)cc1)NC(=O)[C@@H](N)CC(=O)O)C(=O)NCC(=O)N[C@@H](Cc1c[nH]c2ccccc12)C(=O)N[C@@H](CCSC)C(=O)N[C@@H](CC(=O)O)C(=O)N[C@@H](Cc1ccccc1)C(N)=O [Sincalide, reference compound]', 'AC50', '> 92 µM');

Quick check: AC50 of CN(C)c1ccc(/N=N/c2ccccc2C(=O)O)cc1 [Methyl red] ? 48.5 µM

###

test: in vitro; details: rat, gh3-tre-luc cells, AC50 (uM) modified / 1000, Tox21_110001=Tox21_301125; viability, 1 nM T3 present, 24 h
property: CC50 at 24 h

Quick check: CC50 at 24 h of CCOP(=O)(OCC)Oc1cc(C)nc(C(C)C)n1 [Diazoxon] ? > 90 µM

###

test system: GH3-TRE-Luc cell line; conditions: read-out: AC50 (uM) modified / 1000; Tox21_110001=Tox21_110211; viability, 1 nM T3 present, 24 h
property: CC50 (µM)
Numbers only, in µM.

Quick check: CC50 of COC(=O)C1=C(C)NC(C)=C(C(=O)OCCN(C)Cc2ccccc2)C1c1cccc([N+](=O)[O-])c1 (stereo not shown) ? 7.48

###

test system: GH3-TRE-Luc cell line; details: read-out: AC50 (uM) modified / 1000; Tox21_110001=Tox21_110008; viability, 1 nM T3 present, 24 h
Counter-ions that a name gives are not always drawn.
property: CC50 (µM)
One number for each entry, in µM.

Quick check: CC50 of CN(C)c1ccc(C(=C2C=CC(=[N+](C)C)C=C2)c2ccccc2)cc1 [Malachite green oxalate] ? 5.84

###

biological target: TRα ligand-binding domain (Homo sapiens, UniProt P10827); construct: the receptor LBDs expressed as glutathione S-transferase (GST) fusion proteins; purchased; assay: TRa-coa LanthaScreen TR-FRET coactivator (SRC-2 peptide) recruitment, agonist (TOX21_TRA_COA_Agonist_Followup_ratio, aeid 2230); type: biochemical
Sequence (P10827 163-410 isoform P10827-2 limits assumed, other chains not shown): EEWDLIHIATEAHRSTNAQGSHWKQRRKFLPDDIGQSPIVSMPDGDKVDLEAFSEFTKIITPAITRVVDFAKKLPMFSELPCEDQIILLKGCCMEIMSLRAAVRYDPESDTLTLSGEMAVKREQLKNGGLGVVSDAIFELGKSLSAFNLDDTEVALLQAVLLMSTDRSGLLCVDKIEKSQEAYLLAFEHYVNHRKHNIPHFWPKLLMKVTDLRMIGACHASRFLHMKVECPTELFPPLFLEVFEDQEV
property: EMax (% of Control) tra-coa-agonist-followup-1

Would you please look over these solved cases?
INSERT INTO assay_data (compound, experimental_value) VALUES
  ('Cc1cc(NC(=O)C(=O)O)cc(C)c1Oc1ccc(O)c2c1CCC2 [CP-634384, reference compound]', '158.4 % of Control'),
  ('Cl.NC(CO)(CO)CO [Tromethamine hydrochloride]', '70.4 % of Control'),
  ('Cc1ccc(O)cc1', '20.0 % of Control'),
  ('CC1(C)COP(Oc2ccccc2)OC1', '-1.9 % of Control'),
  ('N[C@@H](Cc1ccc(Oc2cc(I)c(O)c(I)c2)c(I)c1)C(=O)O', '152.6 % of Control');

Next up:
Quick check: EMax (% of Control) tra-coa-agonist-followup-1 of CC(C)(c1ccccc1)c1ccc(O)c(C(C)(C)c2ccccc2)c1 ? 9.2 % of Control

###

test system: GH3-TRE-Luc cell line; details: read-out: AC50 (uM) modified / 1000; Tox21_110001=Tox21_113093; viability, 1 nM T3 present, 24 h
property: CC50 (µM)
Answers are plain numbers, in µM.

Quick check: CC50 of CO/N=C1\C[C@]2(C[C@@H]3C[C@@H](C/C=C(\C)C[C@@H](C)/C=C/C=C4\CO[C@@H]5[C@H](O)C(C)=C[C@@H](C(=O)O3)[C@]45O)O2)O[C@H](/C(C)=C/C(C)C)[C@H]1C ? 4.45
